Measured zone of inhibition at 10 µg/disc by item
# System: Staphylococcus aureus
# assayComment: Antimicrobial activity against methicillin-resistant Staphylococcus aureus ATCC 43300 at 10 ug/disc after 24 hrs by disc diffusion assay
# Type: functional
# testParameters: ATCC 43300, 24 h, read-out: DIZ
parameterMeasured: zone of inhibition at 10 µg/disc (mm)

INSERT INTO assay_data (molecule, obsvalue) VALUES
  ('CC12CC[C@](C(=O)Nc3c(O)ccc(C(=O)O)c3O)(OC1=O)C2(C)C', 18),
  ('O=C(O)c1cccc(NC(=O)C2CCCCC2)c1O', 0),
  ('CCCC(=O)Nc1cccc(C(=O)O)c1O', 0),
  ('CC(C)(C)C(=O)Nc1cccc(C(=O)O)c1O', 0),
  ('CC(C)C(=O)Nc1c(O)ccc(C(=O)O)c1O', 0),
  ('CCC(=O)Nc1c(O)ccc(C(=O)O)c1O', 0),
  ('CC12C[C@@]34C=CC(=O)[C@@](C)(CCC(=O)Nc5c(O)ccc(C(=O)O)c5O)C3[C@H](CC1C4)O2 (stereo partly specified)', 30),
  ('CC(C)(C)C(=O)Nc1c(O)ccc(C(=O)O)c1O', 0),
  ('O=C(O)c1ccc(O)c(NC(=O)C2CCCC2)c1O', 0),
  ('CCC1(C(=O)Nc2cccc(C(=O)O)c2O)CCCCC1', 0),
  ('CCC1(C(=O)Nc2c(O)ccc(C(=O)O)c2O)CCCCC1', 0);
